- Assay protocol: qHTS RealTime-Glo MT Cell Viability Assay in HEK293 cells - 8 hour (AID 1224887); note: top concentration of the series differs between compounds; nearly all actives have a fitted effect of over 50% in size
- Experimental parameters: RealTime-Glo luminescence; series mostly up to 76.8 µM
Inconclusive results are not listed. Activity calls are given as the source filed them. Calls come from the whole dose curve; as a rule, active = well fitted cell-killing curve with a large enough effect in the repeat runs; inconclusive = weak or mixed curves, or effect the other way; inactive = flat fitted curve, though single readings scatter.
Outcomes you can answer with include only these: active, inactive

Below, 3 molecules whose answers are already recorded.
> print(dat)
                                   molecule       cat
1    Cc1nc(-c2ccc(Cl)cc2)oc1COC(C)(C)C(=O)O  inactive
2                            Sc1nc2ccccc2s1  inactive
3  C=CCCC(=O)/C=C/C1C(C)=CCCC1(C)C (centres undefined)  inactive

input: Test call, this molecule: O=C(O)c1cc(=O)c2ccccc2o1
output: inactive

input: Test call, this molecule: C#Cc1ccc(-c2ccccc2F)cc1
output: inactive

---

- Assay protocol: A CellTox Green Cytotoxicity Assay to monitor cytotoxicity in HEK293 cells - 16 hour (AID 1224888); note: nearly all actives have a fitted effect of over 35% in size
- Experimental parameters: CellTox Green fluorescence; series mostly up to 76.8 µM
Results filed as inconclusive are left out. Active and inactive are the calls of the source. Calls follow the shape of the dose curve; as a rule, active = well fitted activation curve with a large enough effect in the repeat runs; inconclusive = weak or mixed curves; inactive = flat fitted curve, though single readings scatter.
Outcomes you can answer with include only these: active, inactive

Below, 3 compounds whose answers are already recorded.
> print(dat)
                         compound       cat
1  Cc1c2ccccc2c(C)c2c1ccc1ccccc12  inactive
2                         CCCNCCC  inactive
3   COc1cc(/C=C/c2ccccc2)oc(=O)c1  inactive

input: Test call, this compound: O=C(/C=C/c1ccccc1)OC/C=C/c1ccccc1
output: inactive

input: Test call, this compound: OCCN1CCN(CCCN2c3ccccc3Sc3ccc(C(F)(F)F)cc32)CC1
output: active

input: Test call, this compound: CCCCCCCCCCCC(=O)OCC(C)OC(=O)CCCCC(=O)O (stereo unspecified)
output: inactive

---

- Assay protocol: qHTS assay to identify small molecule antagonists of the peroxisome proliferator-activated receptor delta (PPARd) signaling pathway - cell viability counter screen (AID 743213); note: nearly all actives have a fitted effect of over 50% in size
- Experimental parameters: PPARd-bla HEK293H viability, CellTiter-Glo luminescence, 17 h; series mostly up to 62 µM
Records with an inconclusive call do not appear. Active and inactive are the calls of the source. Calls follow the shape of the dose curve; as a rule, active = well fitted cell-killing curve with a large enough effect in the repeat runs; inconclusive = weak or mixed curves; inactive = no such curve, though single readings can be large or run the other way.
Outcomes you can answer with include only these: Y = active, N = inactive

> print(dat)
                                   molecule  cat
1  CCCCN(CCCC)CC(O)c1cc(Cl)cc2c1-c1ccc(Cl)cc1/C2=C/c1ccc(Cl)cc1 (configuration not stated)    Y
2  OCCN1CCN(CCCN2c3ccccc3Sc3ccc(C(F)(F)F)cc32)CC1    Y
3  c1ccc(C(O[C@@H]2CCCN(CCc3ccc4c(c3)OCO4)C2)c2ccccc2)cc1    N

input: Test call, this molecule: CC(C)NC[C@@H](O)COc1ccc(CC(N)=O)cc1
output: N

input: Test call, this molecule: Cc1cc(C(C)(C)C)c(O)c(C)c1Cn1c(=O)n(Cc2c(C)cc(C(C)(C)C)c(O)c2C)c(=O)n(Cc2c(C)cc(C(C)(C)C)c(O)c2C)c1=O
output: N

input: Test call, this molecule: COc1cc(S(=O)(=O)O)c(C)cc1N=Nc1c(O)ccc2cc(S(=O)(=O)O)ccc12
output: N

input: Test call, this molecule: c1ccsc1
output: N
